- Test system: Streptococcus pneumoniae
- Measurement Notes: Antibacterial activity against penicillin-intermediate Gram-positive Streptococcus pneumoniae TY-5745 after 18 hrs by agar dilution method
- Assay type: functional
- Conditions Used: TY-5745, 18 h
Reported values of MIC for individual entries
Form field: result (number plus unit)

Query: Item `CC[C@H]1OC(=O)CC[C@H](C)[C@@H](O[C@@H]2O[C@H](C)C[C@H](N(C)C)[C@H]2O)[C@@H](CC=O)C[C@@H](C)C(=O)/C=C/C(C)=C/[C@@H]1CO` has what recorded MIC?
Response: 1 µg/mL

Query: Item `CC[C@H]1OC(=O)CC[C@H](C)[C@@H](O[C@@H]2O[C@H](C)C[C@H](N(C)C)[C@H]2O)[C@@H](CC=O)C[C@@H](C)CN(C)CC/C(C)=C/[C@@H]1CO` has what recorded MIC?
Response: 16 µg/mL

Query: Item `CC[C@H]1OC(=O)CC[C@H](C)[C@@H](O[C@@H]2O[C@H](C)C[C@H](N(C)C)[C@H]2O)[C@@H](CC=O)C[C@@H](C)N(C)C/C=C/C(C)=C/[C@@H]1CO` has what recorded MIC?
Response: 32 µg/mL

====

Reported values of MIC for individual entries
- Tested on: Streptococcus pneumoniae
- Measurement Notes: Antibacterial activity against penicillin-intermediate Gram-positive Streptococcus pneumoniae TY-5745 after 18 hrs by agar dilution method
- Assay type: functional
- Conditions Used: TY-5745, 18 h
Express it in µg/mL; write the number only.

Compound	MIC [µg/mL]
CC[C@H]1OC(=O)[C@H](C)[C@@H](O[C@H]2C[C@@](C)(OC)[C@@H](O)[C@H](C)O2)[C@H](C)[C@@H](O[C@@H]2O[C@H](C)C[C@H](N(C)C)[C@H]2O)[C@](C)(O)C[C@@H](C)CN(C)[C@H](C)[C@@H](O)[C@]1(C)O [AZITHROMYCIN]	1

Read the next record carefully.
Query: Item `CC[C@H]1OC(=O)CC[C@H](C)[C@@H](O[C@@H]2O[C@H](C)C[C@H](N(C)C)[C@H]2O)[C@@H](CC=O)C[C@@H](C)N(C)CCC/C(C)=C/[C@@H]1CO` has what recorded MIC?
Response: 32
